Origin of measurements: paper PMC12040169

Tested on: HeLa
Conditions: bulk resorufin, single well, 28.5 h, 10 µM, Bulk resorufin fluorescence
quantity measured: % viability (%)
Unit % implied. Number only.

Examples with their reported % viability follow.
What value of measured % viability is listed for NCCCOc1nc2ccccc2nc1C(F)(F)F [CBK115295] ?
109

Try this compound too: C[C@@H]1CN2CCCC2CN1Cc1cccc2cccnc12 (stereo partly drawn) [CBK284551]
87.8

Try this compound too: Clc1ccc(CN2CCC(Oc3cncc(OCC4COc5ccccc5O4)n3)C2)cc1Cl (stereo not drawn) [CBK084361]
90.5

New cases:
What value of measured % viability is listed for O=C(O)CCc1ccc(-c2cccs2)n1-c1cc(Cl)ccc1O [CBK131890] ?
106

Try this compound too: O=C(O)CC1C(=O)NCCN1Cc1cccc(Oc2ccccc2)c1 (stereo not drawn) [CBK270023]
103

Try this compound too: C[C@@H](Cn1c(=O)oc2ccccc21)NC(=O)Cc1c[nH]c2ccccc12 [CBK284534]
88.7
